Test system: human Y2R
Construct: expressed in transfected cells
experiment: Inositol phosphate (IP3) accumulation assay, Y2R stimulated with NPY
Format: cell-based
run-conditions: 30 μM compound vs DMSO, full NPY concentration-response
attribute-measured: Effect of compound on potency (pEC50) of NPY at Y2R (in words)

molecule="O=C(Nc1cc(C(F)(F)F)ccc1Cl)c1ccc(F)c([N+](=O)[O-])c1 [VU0114795]" result="slight PAM effect"
molecule="O=C(Nc1ccc([N+](=O)[O-])cc1)c1cc(Br)ccc1O [VU0048913]" result="slight PAM effect"
molecule="Cc1ccc(NC(=O)c2cc([N+](=O)[O-])ccc2O)cc1 [VU0048992]" result="slight PAM effect"
